// data source = patent US11470846B2

System: Oryza sativa (ORYSA)
PROCEDURE SUMMARY: Pre-emergence herbicidal activity
Type: in vivo
DETAILS: pre-emergence application, 1000 g/Ha, evaluated after 13 days, scale 0-5
Assign Control of weed species, ORYSA (damage score) to each entry below.
Give the figure only, with no unit attached.

Challenge: Name the reported Control of weed species, ORYSA (damage score) value associated with the compound Cc1nc(-c2cncc(S(C)(=O)=O)c2)sc1N(C)C(=O)OC(C)(C)C
Response given: 0

Challenge: For the compound shown here, Cc1nc(-c2cncc(F)c2)sc1N(C)C(=O)OC(C)(C)C , give the reported Control of weed species, ORYSA (damage score).
Response given: 1

Challenge: For COc1cncc(-c2nc(C(F)(F)F)c(N(C)C(=O)OC(C)(C)C)s2)c1 , what is its reported Control of weed species, ORYSA (damage score)?
Response given: 0

Challenge: Which Control of weed species, ORYSA (damage score) is listed for Cc1nc(-c2cncc(OC(F)F)c2)sc1N(C)C(=O)OC(C)(C)C ?
Response given: 1

Challenge: // query Control of weed species, ORYSA (damage score) value for entry CN(C(=O)OC(C)(C)C)c1sc(-c2cncc(F)c2)nc1C(F)(F)F
Response given: 0

Challenge: Fill in the blank: the reported Control of weed species, ORYSA (damage score) of CN(C(=O)OC(C)(C)C)c1sc(-c2cccnc2)nc1Cl is ____.
Response given: 2

Challenge: Which Control of weed species, ORYSA (damage score) reading was recorded for the compound COC(=O)N(C)c1sc(-c2cccnc2)nc1C ?
Response given: 0

Challenge: Name the recorded Control of weed species, ORYSA (damage score) for Cc1nc(-c2cccnc2)sc1N(C)C(=O)OC(C)C .
Response given: 0
